Reference for the values: patent US12594267B2

- ASSAY INFO: PK after oral administration of spray-dried dispersion (SDD) tablets in dogs
- Format: in vivo
- TEST CONDITIONS: dog, plasma; beagle dogs; oral SDD tablet of the sodium salt (Table T composition, Opadry II White film coat), 300 mg fixed dose; mean ± SD, n=6; read-out: AUC0-72h
- Description: A tablet, prepared from a spray-dried dispersion of a sodium salt of the compound of Formula (Ia), was prepared in a composition shown in Table T below (with an outer film coating made of Opadry® II White 85F18422, wherein the outer film coating provides a 3% weight gain based on the uncoated tablet) and was administered orally at 300 mg fixed dose to 6 beagle dogs (Table U) and the pharmacokinetic (PK) profile was determined. […]

- CHEMICAL STRUCTURE: "CC(C)(C#Cc1ccc(-c2ccc(Cl)c3c(NS(C)(=O)=O)nn(CC(F)(F)F)c23)c([C@H](Cc2cc(F)cc(F)c2)NC(=O)Cn2nc(C(F)(F)F)c3c2C(F)(F)[C@@H]2C[C@H]32)n1)S(C)(=O)=O"
  UNIT STRING: "µM·h"
  AUC(0-t): 15.8

---

- ASSAY INFO: PK after subcutaneous administration of solutions in rats
- Assay type: in vivo, Wistar Han rat
- TEST CONDITIONS: male, Wistar Han, rat, plasma, sc, 50 mg/kg, rat #1; 1 h; SC 50 mg/kg, 300 mg/mL in 15% water/85% PEG 300

- MOLECULE: "CC(C)(C#Cc1ccc(-c2ccc(Cl)c3c(NS(C)(=O)=O)nn(CC(F)(F)F)c23)c([C@H](Cc2cc(F)cc(F)c2)NC(=O)Cn2nc(C(F)(F)F)c3c2C(F)(F)[C@@H]2C[C@H]32)n1)S(C)(=O)=O [Formula (Ia)]"
  UNIT STRING: "nM"
  concentration at 1 h: 8.9

---

- ASSAY INFO: PK after subcutaneous administration of solutions in dogs
- Format: in vivo, Beagle dog
- TEST CONDITIONS: Beagle, dog, plasma, sc, 6 mg/kg, dog; SC 6 mg/kg; 125 mg/mL solution (w/w %: 27.51 water, 58.92 PEG 300, 11.48 sodium salt of Formula (Ia), 2.09 poloxamer 188); mean ± SD, n=3; read-out: AUC0-24h

- COMPOUND: "CC(C)(C#Cc1ccc(-c2ccc(Cl)c3c(NS(C)(=O)=O)nn(CC(F)(F)F)c23)c([C@H](Cc2cc(F)cc(F)c2)NC(=O)Cn2nc(C(F)(F)F)c3c2C(F)(F)[C@@H]2C[C@H]32)n1)S(C)(=O)=O [Formula (Ia)]"
  AUC(0-t) / µM·h: 4.71

---

- ASSAY INFO: PK after subcutaneous administration of solutions in rats
- Type: in vivo, Wistar Han rat
- TEST CONDITIONS: Wistar Han, rat, plasma, sc, 50 mg/kg, rat; SC 50 mg/kg; 75 mg/mL solution (w/w %: 29.21 water, 62.55 PEG 300, 6.97 sodium salt of Formula (Ia), 1.68 poloxamer 188); mean ± SD, n=3; read-out: C28d
MEASUREMENT TYPE: concentration at 28 d (nM)

- MOLECULE: "CC(C)(C#Cc1ccc(-c2ccc(Cl)c3c(NS(C)(=O)=O)nn(CC(F)(F)F)c23)c([C@H](Cc2cc(F)cc(F)c2)NC(=O)Cn2nc(C(F)(F)F)c3c2C(F)(F)[C@@H]2C[C@H]32)n1)S(C)(=O)=O [Formula (Ia)]"
  RECORDED VALUE: 32.5
